system: Opioid receptors; mu & delta (Homo sapiens) (UniProt P41143+P35372)
Sequence (P35372 whole entry, looked up): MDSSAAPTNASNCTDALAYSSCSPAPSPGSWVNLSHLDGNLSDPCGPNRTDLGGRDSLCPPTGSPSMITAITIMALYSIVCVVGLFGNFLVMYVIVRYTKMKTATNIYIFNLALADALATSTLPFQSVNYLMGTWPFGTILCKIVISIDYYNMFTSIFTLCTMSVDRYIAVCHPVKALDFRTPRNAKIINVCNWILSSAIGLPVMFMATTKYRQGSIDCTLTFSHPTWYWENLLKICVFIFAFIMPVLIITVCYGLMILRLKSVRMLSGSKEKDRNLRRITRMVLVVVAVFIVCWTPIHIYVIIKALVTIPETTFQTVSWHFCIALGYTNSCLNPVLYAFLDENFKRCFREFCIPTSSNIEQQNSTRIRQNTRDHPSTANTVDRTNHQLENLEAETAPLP
Sequence (P41143 whole entry, looked up): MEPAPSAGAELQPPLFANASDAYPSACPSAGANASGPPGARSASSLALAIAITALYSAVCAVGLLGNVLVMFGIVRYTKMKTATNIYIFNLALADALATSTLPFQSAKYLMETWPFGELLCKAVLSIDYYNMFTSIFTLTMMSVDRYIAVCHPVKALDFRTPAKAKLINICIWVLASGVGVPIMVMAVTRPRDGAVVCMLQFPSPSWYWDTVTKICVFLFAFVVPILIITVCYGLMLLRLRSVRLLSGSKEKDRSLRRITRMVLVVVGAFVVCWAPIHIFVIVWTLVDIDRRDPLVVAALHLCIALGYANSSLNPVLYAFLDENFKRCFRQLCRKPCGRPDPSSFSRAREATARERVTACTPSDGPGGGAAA
assayOverview: IC50 selectivity for mu receptor of guinea pig Ileum (GPI) and delta receptor of delta opioid receptor of mouse vas deferens (MVD) smooth muscle preparation
Format: tissue-based
Recorded Selectivity ratio for the following compounds
Please reply with the value in numeric form only.

Consider the worked cases shown below.
Oc1ccc2c3c1OC1c4[nH]c5c(OCc6ccccc6)cccc5c4C[C@@]4(O)[C@@H](C2)N(CC2CC2)CC[C@]314 (some centres undefined) : 0.18
Oc1ccc2c3c1OC1c4[nH]c5ccc(/C=C/c6ccccn6)cc5c4C[C@@]4(O)[C@@H](C2)N(CC2CC2)CC[C@]314 (some centres undefined) : 12
Oc1ccc2c3c1OC1c4[nH]c5c(Oc6ccccc6)cccc5c4C[C@@]4(O)[C@@H](C2)N(CC2CC2)CC[C@]314 (some centres undefined) : 0.11

*Q* For the compound Oc1ccc2c3c1OC1c4[nH]c5cc(Oc6ccccc6)ccc5c4C[C@@]4(O)[C@@H](C2)N(CC2CC2)CC[C@]314 (some centres undefined) , give its reported Selectivity ratio.
*A* 0.8

Value source: ChEMBL document CHEMBL1131041
